# Assayed System: Sodium-dependent serotonin transporter (Rattus norvegicus)
# Sequence (P31652 whole entry): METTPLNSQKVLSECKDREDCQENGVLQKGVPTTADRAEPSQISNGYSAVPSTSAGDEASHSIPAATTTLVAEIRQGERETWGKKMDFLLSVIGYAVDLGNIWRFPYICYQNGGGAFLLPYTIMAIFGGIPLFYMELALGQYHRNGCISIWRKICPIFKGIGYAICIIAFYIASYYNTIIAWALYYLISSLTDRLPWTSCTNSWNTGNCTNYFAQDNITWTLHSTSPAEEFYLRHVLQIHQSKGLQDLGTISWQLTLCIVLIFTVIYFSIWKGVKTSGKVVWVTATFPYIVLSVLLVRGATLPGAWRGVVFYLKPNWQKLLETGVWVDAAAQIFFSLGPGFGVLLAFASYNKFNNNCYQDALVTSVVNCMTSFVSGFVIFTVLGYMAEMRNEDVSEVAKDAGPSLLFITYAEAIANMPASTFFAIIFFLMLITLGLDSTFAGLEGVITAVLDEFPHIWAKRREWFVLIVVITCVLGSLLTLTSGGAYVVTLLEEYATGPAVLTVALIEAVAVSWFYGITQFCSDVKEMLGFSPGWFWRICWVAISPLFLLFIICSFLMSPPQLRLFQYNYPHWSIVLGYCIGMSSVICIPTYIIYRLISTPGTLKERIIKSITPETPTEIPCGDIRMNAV
# Experimental Protocol: Affinity at the 5-HT reuptake site labeled with [3H]paroxetine using rat frontal cortex membranes
Please go through the items and note down their pKi.
# pKi: negative log10 of molar concentration; output just the value

Supply recorded pKi for Cc1cc2c(OC[C@@H](O)CN3CC[C@H](c4cc5cccc(F)c5s4)C[C@H]3C)cccc2[nH]1 here.
8.22

Given COc1cccc2sc([C@H]3C[C@H]4CC[C@@H](C3)N4C[C@H](O)COc3cccc4[nH]c(C)cc34)cc12 , respond with its pKi.
9.35

Output pKi of COc1cccc2sc([C@@H]3CCN(C[C@H](O)COc4cccc5[nH]c(C)cc45)[C@@H](C)C3)cc12
9.07

Recall and state the measured pKi for COc1cccc2sc(C3CCN(C[C@H](O)COc4cccc5[nH]c(C)cc45)C(C)(C)C3)cc12 (stereo in doubt; 29) .
7.69

Look up and report measured pKi for this entry: COc1cccc2sc(C3CCN(C[C@H](O)COc4cccc5[nH]c(C)cc45)C(C)(C)C3)cc12 (stereo in doubt; 28)
6.93

Annotate the compound COc1ccc2cc([C@@H]3CCN(C[C@H](O)COc4cccc5[nH]c(C)cc45)[C@@H](C)C3)sc2c1 with its measured pKi.
8.63

Supply pKi value. Item: COc1cccc2sc([C@@H]3C[C@H]4CC[C@@H](C3)N4C[C@H](O)COc3cccc4[nH]c(C)cc34)cc12
9.16

# return recorded pKi for entry Cc1cc2c(OC[C@@H](O)CN3CC[C@@H](c4cc5cccc(F)c5s4)C[C@H]3C)cccc2[nH]1
7.46

Return reported pKi. Input compound: COc1cccc2sc([C@@H]3CCN(C[C@H](O)COc4cccc5oc(C)cc45)[C@H](C)C3)cc12
6.96

Please supply the value of reported pKi for the item Cc1cc2c(OC[C@@H](O)CN3CC[C@H](c4cc5cccc(F)c5s4)C[C@@H]3C)cccc2[nH]1
7.32

Note pKi for the compound shown: COc1cc(OC)c2cc([C@@H]3CCN(C[C@H](O)COc4cccc5[nH]c(C)cc45)[C@@H](C)C3)sc2c1
8.55

Item COc1cccc2sc([C@H]3CCN(C[C@H](O)COc4cccc5[nH]c(C(N)=O)cc45)[C@H](C)C3)cc12 : provide pKi
8.91

Find the measured pKi of Cc1cc2c(OC[C@@H](O)CN3CC[C@@H](c4cc5ccc(F)cc5s4)C[C@@H]3C)cccc2[nH]1 and report it.
9.41

Using known records, supply pKi for Cc1cc2c(OC[C@@H](O)CN3CC[C@@H](c4cc5cc(F)ccc5s4)C[C@@H]3C)cccc2[nH]1
9.62

Name the recorded pKi of the item COc1cccc2sc([C@H]3CCN(C[C@H](O)COc4cccc5oc(C)cc45)[C@H](C)C3)cc12 in your answer.
7.82

###

Provide the recorded pKi for the entries that follow.
# Assayed System: 5-hydroxytryptamine receptor 1A (Homo sapiens, UniProt P08908)
# Sequence (P08908 whole entry): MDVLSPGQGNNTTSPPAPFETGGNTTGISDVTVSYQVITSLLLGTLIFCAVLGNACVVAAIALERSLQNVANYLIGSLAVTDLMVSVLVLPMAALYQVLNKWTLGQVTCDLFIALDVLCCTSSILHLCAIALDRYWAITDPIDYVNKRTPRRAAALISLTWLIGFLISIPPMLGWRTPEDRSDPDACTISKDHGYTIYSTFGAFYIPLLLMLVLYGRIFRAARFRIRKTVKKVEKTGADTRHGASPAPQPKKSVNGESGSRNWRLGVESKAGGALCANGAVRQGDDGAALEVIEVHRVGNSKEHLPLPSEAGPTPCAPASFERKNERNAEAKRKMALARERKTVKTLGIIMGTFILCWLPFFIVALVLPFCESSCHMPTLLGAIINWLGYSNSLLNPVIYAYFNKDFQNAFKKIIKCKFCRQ
Formally, pKi is defined as -log10 of the concentration c, with c in mol/L.

Look up and report measured pKi for this entry: COc1cccc2sc([C@@H]3CCN(C[C@H](O)COc4cccc5oc(C)cc45)[C@H](C)C3)cc12
8.32

Retrieve pKi measured for Cc1cc2c(OC[C@@H](O)CN3CC[C@@H](c4cc5cccc(F)c5s4)C[C@@H]3C)cccc2[nH]1 and print it.
8.87

Look up pKi of COc1cccc2sc([C@@H]3CCN(C[C@H](O)COc4cccc5[nH]c(C)cc45)[C@H](C)C3)cc12 and report it.
7.69

Please report pKi for the following compound: Cc1cc2c(OC[C@@H](O)CN3CC[C@@H](c4cc5ccccc5s4)C[C@@H]3C)cccc2[nH]1
8.15

Output measured pKi for this item: COc1cccc2sc([C@@H]3CCN(C[C@H](O)COc4cccc5[nH]c(C(N)=O)cc45)[C@@H](C)C3)cc12
8.20

Determine its reported pKi: Cc1cc2c(OC[C@@H](O)CN3CC[C@H](c4cc5cccc(F)c5s4)C[C@@H]3C)cccc2[nH]1
7.71

Note pKi for the compound shown: Cc1cc2c(OC[C@@H](O)CN3CC[C@H](c4cc5cccc(F)c5s4)C[C@H]3C)cccc2[nH]1
8.01

Give the value of pKi reported for the following: COc1cccc2sc([C@@H]3CCN(C[C@H](O)COc4cccc5[nH]c(C)cc45)[C@@H](C)C3)cc12
7.84

Complete the entry with pKi for COc1cccc2sc([C@H]3CCN(C[C@H](O)COc4cccc5oc(C)cc45)[C@H](C)C3)cc12
7.57

Indicate the recorded pKi value for this compound: Cc1cc2c(OC[C@@H](O)CN3CC[C@@H](c4cc5c(C)cccc5s4)C[C@@H]3C)cccc2[nH]1
7.98

Check the records and state pKi for Cc1cc2c(OC[C@@H](O)CN3CC[C@@H](c4cc5cc(F)ccc5s4)C[C@@H]3C)cccc2[nH]1
8.25

Find the measured pKi of COc1cccc2sc([C@@H]3C[C@H]4CC[C@@H](C3)N4C[C@H](O)COc3cccc4[nH]c(C(N)=O)cc34)cc12 and report it.
7.91

Annotate the compound COc1cccc2sc([C@H]3C[C@H]4CC[C@@H](C3)N4C[C@H](O)COc3cccc4[nH]c(C)cc34)cc12 with its measured pKi.
7.68

For the compound COc1cccc2sc([C@@H]3C[C@H]4CC[C@@H](C3)N4C[C@H](O)COc3cccc4[nH]c(C)cc34)cc12 , report pKi.
8.04

Please indicate pKi recorded for COc1cccc2sc([C@@H]3CCN(C[C@H](O)COc4cccc5[nH]c(C(N)=O)cc45)[C@H](C)C3)cc12
7.90
